Tested on: hepatic disorder caused by carbon tetrachloride
Assay: Effect of suppressing hepatic disorder caused by carbon tetrachloride
Assay type: in vivo, mice
Settings: mice (dd-strain), 250 mg/kg oral in olive oil, 6 h before carbon tetrachloride 0.05 ml/kg oral; visual observation 24 h after; mean of 5; scale 0 healthy, 2 slightly affected, 4 evident disorder, 6 serious disorder
Label Criterion met when Liver disorder index is strictly below 0.6; at or above that, label Criterion not met.

State whether 0.6 exceeds Liver disorder index recorded for `CC(=O)C(C(=O)c1ccc(Br)cc1)=C1SCS1` .
Criterion met

Dear colleague, could you confirm whether Liver disorder index of `CC(=O)C(C(=O)c1ccc(OCc2ccc(Cl)cc2)cc1)=C1SCS1` falls below 0.6? Thanks.
Criterion not met

A record lists `CC(=O)C(C(=O)c1ccc(Cl)cc1)=C1SCS1` . Is its Liver disorder index below 0.6?
Criterion met

Is 0.6 strictly greater than the compound's reported Liver disorder index? compound: CC(=O)C(C(=O)c1ccccc1)=C1SC(c2ccccc2)S1 (stereo not shown)
Criterion not met

Would you kindly verify if Liver disorder index of CC(=O)C(C(C)=O)=C1SC(C)S1 (stereo not shown) is strictly less than 0.6?
Criterion not met

Confirm or reject: Liver disorder index of `CC(=O)C(C(=O)c1ccc(C)cc1)=C1SCS1` lies strictly below 0.6
Criterion not met

Quick check: Liver disorder index of `CC(=O)C(C(=O)c1cccs1)=C1SCS1` under 0.6?
Criterion met

---

System: hepatic disorder caused by carbon tetrachloride
Test: Effect of suppressing hepatic disorder caused by carbon tetrachloride
Format: in vivo, mice
Settings: mice (dd-strain), 250 mg/kg oral in olive oil, 6 h before carbon tetrachloride 0.05 ml/kg oral; visual observation 24 h after; mean of 5; scale 0 healthy, 2 slightly affected, 4 evident disorder, 6 serious disorder
Exam item: assign YES to entries whose Liver disorder index is below 0.8 and NO to entries at or above 0.8. Note that a value of exactly 0.8 receives NO.

Solved cases (5 shown):
{"compound": "O=C(C(C(=O)c1ccc(F)cc1)=C1SCS1)c1ccccc1 [compound 31]", "qualitative-label": "YES"}
{"compound": "COc1ccccc1C(=O)C(C(C)=O)=C1SCS1 [Compound No. 5]", "qualitative-label": "NO"}
{"compound": "CC(=O)C(C(=O)c1ccc(OC(C)C)cc1)=C1SCS1 [compound 29]", "qualitative-label": "NO"}
{"compound": "COc1cccc(C(=O)C(C(C)=O)=C2SC(c3ccccc3)S2)c1 (stereo not shown) [compound 24]", "qualitative-label": "NO"}
{"compound": "COc1cc(C(=O)C(C(C)=O)=C2SCS2)cc(OC)c1OC [compound 10]", "qualitative-label": "NO"}

Hello, I'm reviewing records and need to know if Liver disorder index of CC(=O)C(C(=O)c1ccccc1)=C1SCS1 [Compound No. 1] is below 0.8. Could you check?
YES

Consider the compound CC(=O)C(C(C)=O)=C1SCS1 [compound 18] . Is its Liver disorder index strictly less than 0.8?
NO

Decide: Liver disorder index of CC(=O)C(C(=O)c1cccnc1)=C1SCS1 [compound 21] strictly below 0.8?
YES

---

Assay: Acute oral toxicity (LD50)
Conditions: in vivo, male rat
observable: LD50

Reported LD50 for COc1ccc(C(=O)C(C(C)=O)=C2SCS2)c(OC)c1 [Compound No. 8] : what is it?
> 1000 mg/kg

---

# Liver disorder index annotations
Tested on: hepatic disorder caused by carbon tetrachloride
Assay: Effect of suppressing hepatic disorder caused by carbon tetrachloride
Type: in vivo, mice
Conditions: mice (dd-strain), 250 mg/kg oral in olive oil, 6 h before carbon tetrachloride 0.05 ml/kg oral; visual observation 24 h after; mean of 5; scale 0 healthy, 2 slightly affected, 4 evident disorder, 6 serious disorder

For orientation, consider the following solved cases.
{"compound": "COc1ccc(C(=O)C(C(C)=O)=C2SCS2)cc1 [compound 7]", "measurement": 1.2}
{"compound": "O=C(C(C(=O)c1ccccc1)=C1SCS1)c1ccccc1 [compound 22]", "measurement": 0.5}
{"compound": "CC(=O)C(C(=O)c1ccc(F)cc1)=C1SCS1 [compound 17]", "measurement": 0.4}
{"compound": "CC(C)C(=O)C(C(=O)c1ccccc1Cl)=C1SCS1 [compound 28]", "measurement": 1.0}
{"compound": "CC(=O)C(C(=O)c1ccco1)=C1SCS1 [compound 20]", "measurement": 0}
{"compound": "COc1cccc(C(=O)C(C(C)=O)=C2SCS2)c1 [compound 6]", "measurement": 2.0}

Which Liver disorder index is reported for this compound? CC(=O)C(C(=O)c1ccc(Cl)cc1Cl)=C1SCS1 [Compound No. 15]
0.5

Item CC(=O)C(C(=O)c1ccc(C)c(C)c1)=C1SCS1 [compound 4] has what recorded Liver disorder index?
0.6

Which Liver disorder index is reported for this compound? CC(=O)C(C(=O)c1ccc(OCc2ccccc2)cc1)=C1SCS1 [compound 11]
1.6

Using the record for CC(=O)C(C(=O)c1ccccc1Cl)=C1SCS1 [compound 13] , report its Liver disorder index.
0.8
